- target-or-test-system: Nuclear receptor subfamily 1 group I member 3 (Homo sapiens) (UniProt Q14994)
- Sequence (Q14994 whole entry, looked up): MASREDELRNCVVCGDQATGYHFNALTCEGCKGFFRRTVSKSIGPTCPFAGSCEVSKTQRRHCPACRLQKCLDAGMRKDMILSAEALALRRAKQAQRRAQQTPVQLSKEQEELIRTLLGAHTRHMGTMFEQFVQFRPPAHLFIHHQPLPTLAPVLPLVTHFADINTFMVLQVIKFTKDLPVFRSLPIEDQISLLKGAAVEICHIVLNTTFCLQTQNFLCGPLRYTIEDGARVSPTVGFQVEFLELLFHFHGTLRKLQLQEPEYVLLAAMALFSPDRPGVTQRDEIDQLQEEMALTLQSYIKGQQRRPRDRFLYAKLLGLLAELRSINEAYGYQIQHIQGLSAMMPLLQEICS
- assay-comment: qHTS assay to identify small molecule antagonists of the constitutive androstane receptor (CAR) signaling pathway (AID 1224838);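 further: HepG2 cells stably expressing hCAR with CYP2B6 luciferase reporter stimulated by CITCO; nearly all actives have a fitted effect of over 40% in size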
- reported-conditions: HepG2-CYP2B6-hCAR luciferase, CITCO-stimulated, 24 h; series mostly up to 92.4 µM
Records with an inconclusive call do not appear. Calls of active or inactive are those of the source. The call rests on the fitted dose curve; in most records, active means well fitted inhibition curve with a large enough effect in the repeat runs; inconclusive means weak or mixed curves, or effect the other way; inactive means no such curve, though single readings can be large or run the other way.
Hi! Could you answer with just one of these? Yes for active, No for inactive

                                   compound  label_class
0  O=c1c(C2CC(c3ccc(-c4ccc(Br)cc4)cc3)Cc3ccccc32)c(O)sc2ccccc12 (configuration not stated)           No
1                            N#Cc1ccc(O)cc1           No
2  C[C@@H]1O[C@@H](O[C@@H]2C=C3CC[C@@H]4[C@H](CC[C@]5(C)[C@@H](c6ccc(=O)oc6)CC[C@]45O)[C@@]3(C)CC2)[C@H](O)[C@H](O)[C@H]1O          Yes
3        Fc1ccc(Oc2ccnc3cc(Cl)cc(Cl)c23)cc1           No

stdin: Recorded test call requested for Clc1ccc(CCC(Cn2ccnc2)Sc2c(Cl)cccc2Cl)cc1 (configuration not stated)
stdout: No

stdin: Recorded test call requested for CCOC(=O)c1ccccc1S(=O)(=O)NC(=O)Nc1nc(Cl)cc(OC)n1
stdout: No

stdin: Recorded test call requested for Clc1ccc(CO/N=C(\Cn2ccnc2)c2ccc(Cl)cc2Cl)c(Cl)c1
stdout: No

stdin: Recorded test call requested for Nc1c(Oc2ccccc2)cc(O)c2c1C(=O)c1ccccc1C2=O
stdout: No

----------
- assay-comment: qHTS assay to identify small molecule antagonists of the TGF-beta/Smad signaling pathway - cell viability counter screen (AID 1346824); further: nearly all actives have a fitted effect of over 50% in size
- reported-conditions: SBE-bla HEK293T viability, CellTiter-Glo luminescence; series mostly up to 76.8 µM
Records with an inconclusive call do not appear. The source made the active and inactive calls. Calls come from the whole dose curve; as a rule, active = well fitted cell-killing curve with a large enough effect in the repeat runs; inconclusive = weak or mixed curves; inactive = flat fitted curve, though single readings scatter.
Hi! Could you answer with just one of these? active, inactive

                                   molecule  label_class
0  [Cl][Sn]([c]1ccccc1)([c]1ccccc1)[c]1ccccc1       active

stdin: Recorded test call requested for Nc1c(Oc2ccccc2)cc(O)c2c1C(=O)c1ccccc1C2=O
stdout: inactive

stdin: Recorded test call requested for Clc1ccc(C(c2ccccc2Cl)C(Cl)(Cl)Cl)cc1 (configuration not stated)
stdout: inactive

----------
- target-or-test-system: Nuclear receptor ROR-gamma (Homo sapiens)
- assay-comment: qHTS assay to identify small molecule antagonists of the retinoid-related orphan receptor gamma (ROR-gamma) signaling pathway (AID 1159521; further: nearly all actives have a fitted effect of over 50% in size)
- reported-conditions: Tet-on RORgamma CHO cells, RORE-luciferase, 16 h; series mostly up to 92.4 µM
Results filed as inconclusive are left out. Active and inactive are the calls of the source. Calls come from the whole dose curve; as a rule, active = well fitted inhibition curve with a large enough effect in the repeat runs; inconclusive = weak or mixed curves, or effect the other way; inactive = no such curve, though single readings can be large or run the other way.
Hi! Could you answer with just one of these? active, inactive

stdin: Recorded test call requested for COc1cccc2c1C(=O)c1c(O)c3c(c(O)c1C2=O)C[C@@](O)(C(=O)CO)CC3OC1CC(N2CCOC(OC)C2)C(O)C(C)O1 (stereo not given in full)
stdout: active

stdin: Recorded test call requested for N#Cc1c(-c2ccc(Cl)cc2)[nH]c(C(F)(F)F)c1Br
stdout: active

stdin: Recorded test call requested for COP(N)(=S)OC
stdout: inactive

stdin: Recorded test call requested for COP(=S)(OC)Oc1cc(Cl)c(Br)cc1Cl
stdout: active

stdin: Recorded test call requested for CC(C)(O)c1cnn2c(-c3ccc(F)c(-c4c(F)cccc4C#N)c3)cnc2n1
stdout: active

stdin: Recorded test call requested for O=C(Nc1ccc2[nH]ccc2c1)c1cc2cc(F)ccc2n1Cc1cccc(F)c1
stdout: active

stdin: Recorded test call requested for CN(C)[C@@H]1C(=O)C(C(N)=O)=C(O)[C@@]2(O)C(=O)C3=C(O)c4c(O)ccc(Cl)c4[C@@](C)(O)[C@H]3C[C@@H]12
stdout: active

stdin: Recorded test call requested for CC(=O)C(Cl)(Cl)Cl
stdout: active

stdin: Recorded test call requested for CCCCCCCCCCCCCCCCCCn1cc[n+](C)c1
stdout: active

Source of measurements: PubChem BioAssay (Tox21)
